The reader will find reported IC50, rat T cell proliferation, experiment 2 values listed item by item below.
target: rat IL-21R expressed on cells (rat); assay: cell-based or functional assay
Give the value, in units of nM, as a plain number.

{"binder": "AbU (antibody, human IgG1, V domains shown, CDR3 graft, residue limits derived as for m29; also called VHP/VL25; VHPTM/VL25) VH: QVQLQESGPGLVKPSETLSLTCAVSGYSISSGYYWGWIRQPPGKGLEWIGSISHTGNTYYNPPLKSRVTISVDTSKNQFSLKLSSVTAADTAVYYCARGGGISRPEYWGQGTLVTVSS VL: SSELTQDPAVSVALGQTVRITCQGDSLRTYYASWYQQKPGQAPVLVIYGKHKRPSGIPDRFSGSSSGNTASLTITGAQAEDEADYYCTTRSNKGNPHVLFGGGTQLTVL", "measured": 105}
{"binder": "AbS (antibody, V domains shown, CDR3 graft, residue limits derived as for m29; also called VHP/VL6; VHPTM/VL6) VH: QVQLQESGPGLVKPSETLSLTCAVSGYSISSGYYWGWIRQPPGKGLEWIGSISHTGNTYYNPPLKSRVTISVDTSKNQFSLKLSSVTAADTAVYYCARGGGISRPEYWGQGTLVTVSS VL: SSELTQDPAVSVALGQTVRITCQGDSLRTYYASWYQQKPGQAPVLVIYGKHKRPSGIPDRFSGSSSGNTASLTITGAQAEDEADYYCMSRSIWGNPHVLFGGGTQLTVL", "measured": 27.1}
{"binder": "AbV (antibody, human IgG1, V domains shown) VH: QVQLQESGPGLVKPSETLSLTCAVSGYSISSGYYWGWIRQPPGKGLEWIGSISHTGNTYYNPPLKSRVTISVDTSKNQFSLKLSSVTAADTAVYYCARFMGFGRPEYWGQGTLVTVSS VL: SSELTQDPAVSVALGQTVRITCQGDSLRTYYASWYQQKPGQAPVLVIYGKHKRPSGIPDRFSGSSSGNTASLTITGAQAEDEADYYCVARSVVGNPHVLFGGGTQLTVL", "measured": 59.2}

// switching to the query binder
Q) Recorded IC50, rat T cell proliferation, experiment 2 for AbW (antibody, human IgG1, V domains shown) VH: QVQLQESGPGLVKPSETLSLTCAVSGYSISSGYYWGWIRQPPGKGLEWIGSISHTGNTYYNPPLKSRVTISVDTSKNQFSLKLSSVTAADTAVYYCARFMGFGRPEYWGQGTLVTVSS VL: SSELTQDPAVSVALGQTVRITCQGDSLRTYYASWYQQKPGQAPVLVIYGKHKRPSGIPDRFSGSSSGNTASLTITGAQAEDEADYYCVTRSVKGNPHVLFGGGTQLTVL , please?
A) 94.7
